test: Results synthesis: relative performance value over all in vitro models; conditions: results of all in vitro models normalized and weighed; single drugs
Quantity: Relative performance value

• C=CCNc1nc(NCC=C)nc(N2CCN(C(c3ccc(F)cc3)c3ccc(F)cc3)CC2)n1 [almitrine] = 38
• Cc1cccc(Nc2ccncc2S(=O)(=O)NC(=O)NC(C)C)c1 [torasemide] = 16
• Cc1c(Cl)cccc1Nc1ccccc1C(=O)O [tolfenamic acid] = 9
• C[C@@H](NCCCc1cccc(C(F)(F)F)c1)c1cccc2ccccc12 [cinacalcet] = 32
• Nc1nc(N)c2nc(-c3ccccc3)c(N)nc2n1 [triamterene] = 18
• CCN(CC)C(=O)N1CCN(C)CC1 [diethylcarbamazine] = 32
• C1COC(NC(C2CC2)C2CC2)=N1 [rilmenidine] = 16
• CC(C(O)c1ccc(O)cc1)N1CCC(Cc2ccccc2)CC1 (stereo not shown) [ifenprodil] = 28
• C[C@@H]1CC(=O)NN=C1c1ccc(NN=C(C#N)C#N)cc1 [levosimendan] = 20
• Cn1c(=O)c2c(ncn2CC(O)CO)n(C)c1=O (stereo not shown) [diprophylline] = 11

---

assay: Results synthesis: relative performance value over all in vitro models; conditions: results of all in vitro models normalized and weighed; single drugs
Quantity: Relative performance value

- CC(=O)NCCCS(=O)(=O)O [acamprosate]: 15
- CCN(CC)CCOCCOC(=O)C1(c2ccccc2)CCCC1 [carbetapentane]: 33
- Cc1cccc(C)c1OCC(C)N (stereo not drawn) [mexiletine]: 10
- CN1CCCC(n2nc(Cc3ccc(Cl)cc3)c3ccccc3c2=O)CC1 (stereo not drawn) [azelastine]: 30
- Cc1ccc(C(=O)C(C)CN2CCCCC2)cc1 (stereo not drawn) [tolperisone]: 19
- c1cnc(N2CCN(Cc3ccc4c(c3)OCO4)CC2)nc1 [piribedil]: 24
- CO[C@]12C[C@@H](COC(=O)c3cncc(Br)c3)CN(C)[C@@H]1Cc1cn(C)c3cccc2c13 [nicergoline]: 40
- CN/C(=N/CCSCc1nc[nH]c1C)NC#N [cimetidine]: 31
- NCC(CC(=O)O)c1ccc(Cl)cc1 (racemic) [baclofen]: 16
- CN(C)CC[C@@H](c1ccc(Br)cc1)c1ccccn1 [dexbrompheniramine]: 21
- O=C[C@@H](O)[C@@H](O)[C@H](O)[C@H](O)CO [D-mannose]: 18
- COC1=C(OC)C(=O)C(CCCCCCCCCCO)=C(C)C1=O [idebenone]: 53
